Target: KRAS G13D (Homo sapiens, UniProt P01116+P62937, G13D)
Sequence (P01116 1-169 isoform P01116-2 G13D limits assumed): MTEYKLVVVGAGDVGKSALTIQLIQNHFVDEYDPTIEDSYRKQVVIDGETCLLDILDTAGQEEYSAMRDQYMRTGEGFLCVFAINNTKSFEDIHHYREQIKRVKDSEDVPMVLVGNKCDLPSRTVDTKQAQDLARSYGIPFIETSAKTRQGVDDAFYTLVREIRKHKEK
Sequence (P62937 whole entry): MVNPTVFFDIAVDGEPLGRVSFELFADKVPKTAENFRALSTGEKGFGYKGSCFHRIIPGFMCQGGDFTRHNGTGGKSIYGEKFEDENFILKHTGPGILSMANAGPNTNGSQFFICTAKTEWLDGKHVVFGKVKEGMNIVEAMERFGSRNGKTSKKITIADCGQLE
Assay: Disruption of BRAF RBD interaction with Ras (FRET / MOA assay, with Cyclophilin A)
Format: biochemical
Conditions: KRAS G13D; read-out: KRAS G13D FRET data IC50
pIC50: −log10 of the molar value.
MEASUREMENT_NAME: pIC50

- CCn1c(-c2cccnc2[C@H](C)OC)c2c3cc(ccc31)-c1cc(O)cc(c1)C[C@H](NC(=O)[C@@H]1C[C@H]1C)C(=O)N1CCC[C@H](N1)C(=O)OCC(C)(C)C2 [Example A183]: 5.00 to 6.00
- CCn1c(-c2cccnc2[C@H](C)OC)c2c3cc(ccc31)-c1cccc(c1)C[C@H](NC(=O)[C@@H](COC1CN(C(=O)C#C[C@@H]3COCCN3C)C1)C(C)C)C(=O)N1CCC[C@H](N1)C(=O)OCC(C)(C)C2 (atropisomer, axis not shown) [Example A648]: < 5.00
- CCn1c(-c2cccnc2[C@H](C)OC)c2c3cc(ccc31)-c1cc(O)cc(c1)C[C@H](NC(=O)[C@H](C(C)C)N(C)C(=O)[C@H]1CCCN[C@@H]1C)C(=O)N1CCC[C@H](N1)C(=O)OCC(C)(C)C2 [Example A134]: 7.00 to 8.00

IN: Could you share which pIC50 value was measured for CCn1c(-c2cccnc2[C@H](C)OC)c2c3cc(ccc31)-c1csc(n1)C[C@H](NC(=O)[C@H](C(C)C)N(C)C(=O)N1C[C@H]3CN(C)C[C@H]31)C(=O)N1CCC[C@H](N1)C(=O)OCC(C)(C)C2 [Example A497] ?
OUT: 5.00 to 6.00

###

System: K-Ras G12C (NCI-H358 cells)
Test: Potency assay: pERK (AlphaLISA SureFire or In-Cell Western)
Type: cell-based
Conditions: Homo sapiens, NCI-H358; H358 KRAS G12C; read-out: pERK EC50
pEC50: −log10 of the molar value.
Kindly state pEC50 for each of the entries shown.

Below, 8 compounds whose answers are already recorded.
* C=CC(=O)N1CC[C@H](C(=O)N(C)[C@H](C(=O)N[C@H]2Cc3cc(O)cc(c3)-c3ccc4c(c3)c(c(-c3cnn(C)c3[C@H](C)OC)n4CC)CC(C)(C)COC(=O)[C@@H]3CCCN(N3)C2=O)C(C)C)C1 | > 5.30
* CCn1c(-c2cccnc2[C@H](C)OC)c2c3cc(ccc31)-c1cc(sn1)C[C@H](NC(=O)[C@H](C(C)C)N(C)C(=O)[C@@H]1CCN(C(=O)C#CCN3CCOCC3)C1)C(=O)N1CCC[C@H](N1)C(=O)OCC(C)(C)C2 | > 5.30
* C=CC(=O)N1CC[C@H](C(=O)N(C)[C@H](C(=O)N[C@H]2Cc3cc(O)cc(c3)-c3ccc4c(c3)c(c(-c3ccc5c(c3)CN(C)C5)n4CC)CC(C)(C)COC(=O)[C@@H]3CCCN(N3)C2=O)C(C)C)C1 | > 5.30
* C=CC(=O)N1CC[C@H](C(=O)N(C)[C@H](C(=O)N[C@H]2Cc3cccc(c3)-c3ccc4c(c3)c(c(-c3cccnc3COC)n4CC)CC(C)(C)COC(=O)[C@@H]3CCCN(N3)C2=O)C(C)C)C1 | > 5.30
* C=CC(=O)N1CC[C@@H](N(C)C(=O)N(C)[C@H](C(=O)N[C@H]2Cc3nc(cs3)-c3ccc4c(c3)c(c(-c3cccnc3[C@H](C)OC)n4CC(F)(F)F)CC(C)(C)COC(=O)[C@@H]3CCCN(N3)C2=O)C(C)C)C1 (atropisomer, axis not shown) | > 5.30
* C=CC(=O)N1CCC(C(=O)N(C)C(C(=O)NC2Cc3nc(cs3)-c3ccc4c(c3)c(c(-c3cccnc3C(C)OC)n4CC)CC(C)(C)COC(=O)C3CCCN(N3)C2=O)C(C)C)C1 (stereo not drawn) | > 5.30
* C=CC(=O)N1CC[C@H](C(=O)N(C)[C@H](C(=O)N[C@H]2Cc3cc(O)cc(c3)-c3cnc4c(c3)c(c(-c3ccccc3CCOC)n4CC)CC(C)(C)COC(=O)[C@@H]3CCCN(N3)C2=O)C(C)C)C1 | > 5.30
* CCn1c(-c2cccnc2[C@H](C)OC)c2c3cc(ccc31)-c1cccc(c1)C[C@H](NC(=O)[C@H](C(C)C)N(C)C(=O)[C@H]1CCN(C(=O)C#C[C@@H]3CCO3)C1)C(=O)N1CCC[C@H](N1)C(=O)OCC(C)(C)C2 | > 5.30

Let us examine a further case.
IN: Could you share which pEC50 value was measured for CCn1c(-c2cccnc2COC)c2c3cc(ccc31)-c1cc(O)cc(c1)C[C@H](NC(=O)[C@@H](C(C)C)N(C)C(=O)[C@H]1CCN(C(=O)C#CCN(C)C)C1)C(=O)N1CCC[C@H](N1)C(=O)OCC(C)(C)C2 ?
OUT: > 5.30
